molecular target: human recombinant FGFR1 (Homo sapiens); test: FGFR family enzymatic activity assay (Caliper-based kinase assay), FGFR1; assay type: biochemical; conditions: FGFR1 0.5 nM, ATP 100 μM, peptide substrate 1 μM, room temperature 3 h
Sequence (P11362 22-822): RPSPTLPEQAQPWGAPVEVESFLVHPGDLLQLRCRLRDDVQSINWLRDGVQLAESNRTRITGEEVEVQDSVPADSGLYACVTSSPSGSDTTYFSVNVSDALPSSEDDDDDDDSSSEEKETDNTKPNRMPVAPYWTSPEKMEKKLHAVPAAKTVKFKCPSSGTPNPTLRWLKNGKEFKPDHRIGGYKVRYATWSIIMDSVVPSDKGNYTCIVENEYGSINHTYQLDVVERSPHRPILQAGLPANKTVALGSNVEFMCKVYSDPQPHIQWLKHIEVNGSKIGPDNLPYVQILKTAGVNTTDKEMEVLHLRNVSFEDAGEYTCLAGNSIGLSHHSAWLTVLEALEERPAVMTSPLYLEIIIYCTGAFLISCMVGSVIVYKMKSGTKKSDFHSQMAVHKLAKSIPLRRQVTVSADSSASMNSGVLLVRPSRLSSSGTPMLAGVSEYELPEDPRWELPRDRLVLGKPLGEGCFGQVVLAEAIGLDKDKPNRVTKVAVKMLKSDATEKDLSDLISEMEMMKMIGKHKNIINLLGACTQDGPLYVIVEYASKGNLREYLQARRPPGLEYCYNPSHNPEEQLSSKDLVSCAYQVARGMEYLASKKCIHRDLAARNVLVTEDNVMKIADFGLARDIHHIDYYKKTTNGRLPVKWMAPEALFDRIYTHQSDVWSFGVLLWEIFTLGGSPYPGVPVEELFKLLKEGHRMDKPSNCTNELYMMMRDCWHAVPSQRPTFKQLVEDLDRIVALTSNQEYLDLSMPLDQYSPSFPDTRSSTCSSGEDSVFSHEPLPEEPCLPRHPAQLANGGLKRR
ASSAY METRIC: IC50 (nM)

C=CC(=O)N1CCCC(CCn2c(=O)c(-c3ccccc3Cl)cc3cnc(NCCCCN(CC)CC)nc32)C1 (stereo not shown): 840

a. C=CS(=O)(=O)Nc1cccc(CCn2c(=O)c(-c3cc(OC)cc(OC)c3Cl)cc3cnc(NC)nc32)c1
b. C=CC(=O)Nc1ccc(CCn2c(=O)c(-c3cc(OC)cc(OC)c3Cl)cc3cnc(NCCN4CCOCC4)nc32)c(F)c1
c. C=CC(=O)Nc1ccc(CCn2c(=O)c(-c3cc(OC)cc(OC)c3Cl)cc3cnc(NC(C)(C)CO)nc32)cc1
Q: Form: Sort by [IC50] Order [ ascending ] Present the labels in the sequence the task asks for.
Result: c, b, a
(c: 1.5 nM, b: 2.2 nM, a: 6.7 nM)
